System: Nrf2
Assay: Nrf2 induction, SDS-PAGE and Western blotting of nuclear extracts
Assay type: cell-based
Details: cells treated 1, 2 and 4 hr
parameter measured: Nrf2 (ability to induce the transcription factor Nrf2)

| molecule | result |
| --- | --- |
| O=c1c(O)c(-c2ccc(O)c(O)c2)oc2cc(O)ccc12 [Fisetin, 3,7,3′,4′-Tetrahydroxyflavone, reference compound] | Yes |
| Cc1cc2oc(-c3ccc(N4CCCC4)cc3)c(O)c(=O)c2cc1C [CMS-122] | No |
| COc1ccc(/C=C/C(=O)c2cc(C)c(C)cc2O)cc1OCc1ccccc1 [CMS-086] | Yes |
| O=C(/C=C/c1ccc(O)c(O)c1)c1ccc2ccccc2c1O [CMS-034] | Yes |

Turning to the following molecule.
Per the record, CCOc1cc(-c2ccc(O)c(O)c2)nc2ccccc12 [CMS-023] has Nrf2 (ability to induce the transcription factor Nrf2) of No

###

Test system: Nrf2
Experiment: Nrf2 induction, SDS-PAGE and Western blotting of nuclear extracts
Type: cell-based
Conditions: cells treated 1, 2 and 4 hr
parameter measured: Nrf2 (ability to induce the transcription factor Nrf2)

| smiles structure | result |
| --- | --- |
| COc1cc(-c2ccc(O)c(O)c2)nc2ccccc12 | No |
| CC(C)Oc1cc(-c2ccc(O)c(O)c2)nc2ccccc12 | No |
| Oc1ccc(-c2cc(OC3CCCC3)c3ccccc3n2)cc1O | No |

###

Test system: Nrf2
Experiment: Nrf2 induction, SDS-PAGE and Western blotting of nuclear extracts
Format: cell-based
Conditions: cells treated 1, 2 and 4 hr
parameter measured: Nrf2 (ability to induce the transcription factor Nrf2)

See these solved cases before continuing.
| compound | result |
| --- | --- |
| CN(C)c1ccc(-c2oc3c(ccc4ccccc43)c(=O)c2O)cc1 [CMS-118] | No |
| O=c1c(O)c(-c2ccc(O)c(O)c2)oc2ccccc12 [CMS-04P, reference compound] | Yes |
| Cc1cc(O)c(C(=O)/C=C/c2ccc(O)c(O)c2)cc1C [CMS-011] | Yes |
| Cc1cc2oc(-c3ccc(N(C)C)cc3)c(O)c(=O)c2cc1C [CMS-117] | No |

Turning to the following compound.
Per the record, O=c1c(O)c(-c2ccc(N3CCCC3)c(O)c2)oc2c1ccc1ccccc12 [CMS-140] has Nrf2 (ability to induce the transcription factor Nrf2) of No

###

System: HT22 cells
Test: In vitro ischemia assay (HT22 cell IAA assay, MTT)
Type: cell-based, mouse
Details: Mus musculus, HT-22; 20 μM IAA, compound 100 nM
parameter measured: percent protection from IAA-induced cell death at 0.1 µM (%)
Record the value in %, omitting the unit from your answer.

See these solved cases before continuing.
| molecule | numeric readout |
| --- | --- |
| O=C(/C=C/c1ccc(O)c(O)c1)c1ccc2ccccc2c1O | 63 |
| COc1cc(-c2oc3cc(C)c(C)cc3c(=O)c2O)ccc1O | 67 |
| O=c1cc(-c2cc(O)c(O)c(O)c2)oc2ccccc12 [PM-008, 3′,4′,5′-trihydroxyflavone] | 88 |
| CCc1ccc2oc(-c3ccc(O)c(O)c3)c(O)c(=O)c2c1 | 81 |
| COc1cc(-c2ccc(O)c(O)c2)nc2ccccc12 | 71 |
| CC(C)Oc1cc(-c2ccc(O)c(O)c2)nc2ccccc12 | 72 |
| CCOc1cc(-c2ccc(O)c(O)c2)nc2ccccc12 | 72 |
| Cc1cc(O)c(C(=O)/C=C/c2ccc(O)c(O)c2)cc1C | 62 |

Per the record, CCCc1ccc2oc(-c3ccc(O)c(O)c3)c(O)c(=O)c2c1 has percent protection from IAA-induced cell death at 0.1 µM of 80

Per the record, Cc1ccc2oc(-c3ccc(O)c(O)c3)c(O)c(=O)c2c1 has percent protection from IAA-induced cell death at 0.1 µM of 89

Per the record, COc1cc(-c2oc3cc(C)c(C)cc3c(=O)c2O)ccc1OCc1ccccc1 has percent protection from IAA-induced cell death at 0.1 µM of 49

Per the record, O=c1c(O)c(-c2ccc(O)c(O)c2)oc2c1ccc1ccccc12 has percent protection from IAA-induced cell death at 0.1 µM of 67

Hello, the source for this data is patent US20140186329A1, in case you need it.
